In this section, each of the compounds is paired with its reported pIC50.
Target: 92 kDa gelatinase (MMP9) (Homo sapiens, UniProt P14780)
Sequence (P14780 107-707 limits assumed): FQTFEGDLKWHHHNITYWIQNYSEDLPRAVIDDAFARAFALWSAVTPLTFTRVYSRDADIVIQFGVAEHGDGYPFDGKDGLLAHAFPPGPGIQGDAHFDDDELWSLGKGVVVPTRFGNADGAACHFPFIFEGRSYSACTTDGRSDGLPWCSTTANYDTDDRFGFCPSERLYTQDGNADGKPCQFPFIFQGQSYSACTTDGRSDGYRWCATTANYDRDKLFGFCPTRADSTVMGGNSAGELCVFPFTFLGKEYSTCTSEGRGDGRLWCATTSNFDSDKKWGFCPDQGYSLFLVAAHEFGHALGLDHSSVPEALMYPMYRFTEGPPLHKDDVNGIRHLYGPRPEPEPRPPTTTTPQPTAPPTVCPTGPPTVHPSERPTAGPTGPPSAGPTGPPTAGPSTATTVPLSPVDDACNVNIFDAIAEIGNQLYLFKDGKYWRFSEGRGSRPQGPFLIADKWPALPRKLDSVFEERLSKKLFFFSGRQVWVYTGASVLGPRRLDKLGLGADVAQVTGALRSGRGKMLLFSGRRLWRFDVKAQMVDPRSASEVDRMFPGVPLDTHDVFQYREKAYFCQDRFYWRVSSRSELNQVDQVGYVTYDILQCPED
Assay: MMP9 enzyme inhibition assay (fluorogenic peptide substrate McaPLGLDpaAR)
Conditions: recombinant human 92 kDa gelatinase, 37° C., 2 hours
Method: Compounds were tested for inhibitory activity against 92 kDa gelatinase (MMP9) in an assay using a coumarin-labelled peptide substrate, (7-methoxycoumarin-4-yl)acetyl-Pro-Leu-Gly-Leu-(3-[2,4-dinitrophenyl]-L-2,3-diaminopropionyl)-Ala-Arg-NH2 (McaPLGLDpaAR) (Knight et al, FEBS Lett. 1992; 263-266). […] The effect of the test compound was determined from the dose response curve generated by the 10 duplicate concentrations of inhibitor. […]
pIC50: −log10 of the molar value.

smiles-record: CC(C)C[C@H](CC(=O)NO)C(=O)N[C@H](c1nc(-c2ccccc2)no1)C(C)(C)C
pIC50: 5.00 to 6.00

smiles-record: CC(C)C[C@@H](C(=O)N[C@H](c1noc(-c2ccco2)n1)C(C)(C)C)[C@H](O)C(=O)O
pIC50: < 5.00

smiles-record: CCOc1ccc(CCC[C@@H](C(=O)N[C@H](c2noc(-c3cccs3)n2)C(C)(C)C)[C@H](O)C(=O)NO)cc1
pIC50: > 7.00

smiles-record: CC(C)c1noc([C@@H](NC(=O)[C@H](CC2CCCC2)[C@H](O)C(=O)NO)C(C)(C)C)n1
pIC50: > 7.00

smiles-record: CC(C)C[C@@H](C(=O)N[C@H](c1noc(-c2ccco2)n1)C(C)(C)C)[C@H](O)C(=O)NO
pIC50: 6.00 to 7.00

smiles-record: CC(C)C[C@@H](C(=O)N[C@H](c1noc(Cc2ccccc2)n1)C(C)(C)C)[C@H](O)C(=O)NO
pIC50: 5.00 to 6.00

smiles-record: CC(C)C[C@@H](C(=O)N[C@H](c1noc(CC2CCCC2)n1)C(C)(C)C)[C@H](O)C(=O)NO
pIC50: 5.00 to 6.00

smiles-record: CC(C)C[C@@H](C(=O)N[C@H](c1nc(C(C)C)no1)C(C)(C)C)[C@H](O)C(=O)NO
pIC50: 6.00 to 7.00

smiles-record: CC(C)(C)[C@H](NC(=O)[C@H](CCCc1cc(C(F)(F)F)cc(C(F)(F)F)c1)[C@H](O)C(=O)NO)c1noc(-c2cccs2)n1
pIC50: < 5.00

smiles-record: CC(C)(C)[C@H](NC(=O)[C@H](CCCc1cc(C(F)(F)F)cc(C(F)(F)F)c1)[C@H](O)C(=O)NO)c1noc(-c2ccco2)n1
pIC50: < 5.00

smiles-record: CCOc1ccc(CCC[C@@H](C(=O)N[C@H](c2noc(-c3ccco3)n2)C(C)(C)C)[C@H](O)C(=O)NO)cc1
pIC50: > 7.00

smiles-record: Cc1nc([C@@H](NC(=O)[C@H](CC(C)C)[C@H](O)C(=O)NO)C(C)(C)C)no1
pIC50: 5.00 to 6.00

smiles-record: CC(C)C[C@@H](C(=O)N[C@H](c1noc(C(C)(C)C)n1)C(C)(C)C)[C@H](O)C(=O)NO
pIC50: 6.00 to 7.00

smiles-record: CC(C)C[C@@H](C(=O)N[C@H](c1nc(-c2ccccc2)no1)C(C)C)[C@H](O)C(=O)NO
pIC50: 6.00 to 7.00
